# assay target: human carbonic anhydrase IX (CAIX) (human, UniProt Q16790 38-414)
# assay explanation: SPR (Biacore T200), single cycle kinetics; antibody in HEK EBNA supernatant captured on Protein G chip, CAIX as analyte

{"columns": ["binder", "binding result"],
 "data": [
  ["Girentuximab humanised VH5/Vκ1 IgG1 (antibody, V domains shown) VH: EVQLVESGGGLVKPGGSLRLSCAASGFTFSNYYMSWVRQAPGKGLEWVAAINSDGGITYYLDTVKGRFTISRDNAKNTLYLQMNSLRAEDTALYYCARHRSGYFSMDYWGQGTLVTVSS VL: DIVMTQSPSFLSASVGDRVTITCKASQNVVSAVAWYQQKPGQAPKLLIYSASNRYTGVPDRFTGSGSGTDFTLTISSLQSEDLADYFCQQYSNYPWTFGGGTKVEIKR", "binds"],
  ["Girentuximab humanised VH5/Vκ4 IgG1 (antibody, V domains shown) VH: EVQLVESGGGLVKPGGSLRLSCAASGFTFSNYYMSWVRQAPGKGLEWVAAINSDGGITYYLDTVKGRFTISRDNAKNTLYLQMNSLRAEDTALYYCARHRSGYFSMDYWGQGTLVTVSS VL: DIQMTQSPSSLSASVGDRVTITCKASQNVVSAVAWYQQKPGQAPRLLIYSASNRYTGVPDRFSGSGSGTDFTLTISSLQAEDLADYYCQQYSNYPWTFGGGTKVEIKR", "binds"],
  ["Girentuximab humanised VH5/Vκ5 IgG1 (antibody, V domains shown) VH: EVQLVESGGGLVKPGGSLRLSCAASGFTFSNYYMSWVRQAPGKGLEWVAAINSDGGITYYLDTVKGRFTISRDNAKNTLYLQMNSLRAEDTALYYCARHRSGYFSMDYWGQGTLVTVSS VL: DIQMTQSPSSLSASVGDRVTITCKASQNVVSAVAWYQQKPGQAPRRLIYSASNRYTGVPDRFSGSGSGTDFTLTISSLQAEDLADYYCQQYSNYPWTFGGGTKVEIKR", "binds"]
]}
